Attribution: patent US20250099420A1

- tested-on: GPR139 (Homo sapiens, UniProt Q6DWJ6)
- Sequence (Q6DWJ6 1-353): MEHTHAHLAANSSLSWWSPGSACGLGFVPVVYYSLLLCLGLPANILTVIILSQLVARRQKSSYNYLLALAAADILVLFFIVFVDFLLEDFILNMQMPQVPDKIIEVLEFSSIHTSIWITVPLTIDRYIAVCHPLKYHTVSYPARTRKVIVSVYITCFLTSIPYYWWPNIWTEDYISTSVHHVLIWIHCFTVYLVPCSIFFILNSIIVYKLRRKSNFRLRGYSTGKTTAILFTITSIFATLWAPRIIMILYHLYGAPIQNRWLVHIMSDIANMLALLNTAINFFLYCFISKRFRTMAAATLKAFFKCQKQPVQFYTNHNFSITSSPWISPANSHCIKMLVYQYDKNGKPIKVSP
Collected GPR139 Antagonist Activity Lipophilic Efficiency (logP) values appear next to each entry.
Please reply with the value in numeric form only.

compound	recorded-measurement
Cc1cc(C(=O)N/N=C/c2cn(Cc3ccccc3)c3ccccc23)n[nH]1 [SR-01000110742]	1.94
Cc1ccc(-n2cc(-c3ccccc3)nc2SCC(=O)Nc2cccc(C)c2C)cc1 [SR-01000555460]	−1.9E+0
Cc1ccc(CNC(=O)CSc2nc3ccsc3c(=O)n2NC(=O)c2cccc(Br)c2)cc1 [SR-01000564946]	0.81

Next:
stdin: Report GPR139 Antagonist Activity Lipophilic Efficiency (logP) for COc1ccc(C2=NN(C3CCCCCC3)C(=O)[C@@H]3CC=CC[C@@H]23)cc1OCCCCOc1ccc(-c2nn[nH]n2)cc1 [SR-05000022540] please.
stdout: −780.8E−3

* * *

- Test system: parental HEK cells
- test: HEK parental Agonist Counterscreen Assay (non-transfected cells)
- Type: cell-based
- particulars: HEK Agonist Activity section
quantity: Lipophilic Efficiency (logD)
Please reply with the value in numeric form only.

compound	recorded-measurement
CC(C)C(=O)NNC(=O)C(C)Oc1ccc(Cl)cc1Cl (stereo not drawn) [SR-01000361172]	1.97

Next:
stdin: Report Lipophilic Efficiency (logD) for O=C(NC1CC1)C1CC(Cc2cccc3ccccc23)=NO1 (stereo not drawn) [SR-01000188699] please.
stdout: 2.02

* * *

Collected Lipophilic Efficiency (logP) values appear next to each entry.
- tested-on: GPR139 (Homo sapiens)
- test: GPR139 Agonist titration / agonist counterscreen assay (calcium detection, HEK-GPR139 cells)
- Assay type: cell-based
- Set-up: expressed in transfected cells; host or cells: HEK Aequorin cells, Maxcyte transient transfection
- particulars: GPR139 Agonist Activity; based on logP
Please reply with the value in numeric form only.

molecule	tested-on	Lipophilic Efficiency (logP)
COc1ccccc1C(=O)NNC(=O)C(C)Oc1ccc(Cl)cc1Cl (stereo not drawn) [SR-01000356020]	GPR139 (Homo sapiens)	4.27
O=C(CCCOc1ccc(Cl)cc1Cl)NNC(=O)Cc1ccccc1 [SR-01000067982]	GPR139 (Homo sapiens)	3.54
CC(NC(=O)CN1CCN(Cc2ccc(Cl)cc2)C1=O)c1ccccc1 (stereo not drawn) [SR-01000105214]	GPR139 (Homo sapiens)	3.89
COc1cc(NC(=O)NCCc2ccc3c(c2)CCCN3C)cc(OC)c1 [SR-01000923249]	GPR139 (Homo sapiens)	3.81
CN1CCC(Oc2cc(-c3cn[nH]c3)ccc2NC(=O)C2COc3ccc(F)cc3C2)C1 (stereo not drawn) [SR-00000006339]	GPR139 (Homo sapiens)	5.03
COc1ccc(NC(=O)NCCOc2cccc3ccccc23)cc1OC [SR-01000223498]	GPR139 (Homo sapiens)	4.05
O=C(NCc1csc(-c2cccs2)n1)C1CC(Cc2ccc3c(c2)OCO3)=NO1 (stereo not drawn) [SR-01000187428]	GPR139 (Homo sapiens)	3.43
COc1ccc(CCNC(=O)c2cncc(-c3csc4ccccc34)c2)cc1 [SR-01000654639]	GPR139 (Homo sapiens)	2.51

Next:
stdin: Enter reported Lipophilic Efficiency (logP) observed with GPR139 (Homo sapiens) for COc1cc(C(C)=O)ccc1OCC(=O)OCC(=O)NCCCc1ccccc1 [SR-01000056458]
stdout: 5.10

* * *

Collected Lipophilic Efficiency (logP) values appear next to each entry.
- Tested on: parental HEK cells
- test: HEK parental Agonist Counterscreen Assay (non-transfected cells)
- Assay type: cell-based
- particulars: HEK Agonist Activity section
Please reply with the value in numeric form only.

Worked examples, 2 compounds total:
compound	tested-on	Lipophilic Efficiency (logP)
CCCc1ccccc1C1=CCC(NC(=O)Cn2ncc3c2-c2ccccc2CC3)=C1	parental HEK cells	1.69
C=C(CC1C(=O)CC(c2ccccc2)(c2ccccc2)C1=O)C(C)CC1=CC=CC1 (stereo not shown)	parental HEK cells	1.70

stdin: Enter reported Lipophilic Efficiency (logP) observed with parental HEK cells for `Cc1cc(CC(=O)N/C=C/c2cccc3ccccc23)n[nH]1`
stdout: 2.51

stdin: Enter reported Lipophilic Efficiency (logP) observed with parental HEK cells for CC1(c2ccc3c(c2)OCO3)NC(=O)N(CC(=O)Nc2ccccc2[N+](=O)[O-])C1=O (stereo not shown)
stdout: 3.20

stdin: Enter reported Lipophilic Efficiency (logP) observed with parental HEK cells for Cc1ccc(CC2CCC(CC(=O)CC3CCCCCCC3)C2=O)cc1 (stereo not shown)
stdout: 1.44

* * *

Collected Hill Slope values appear next to each entry.
- tested-on: GPR139 (Homo sapiens)
- test: GPR139 Agonist titration / agonist counterscreen assay (calcium detection, HEK-GPR139 cells)
- Assay type: cell-based
- Parameters: expressed in transfected cells; host or cells: HEK Aequorin cells, Maxcyte transient transfection
- particulars: GPR139 Agonist Activity
Please reply with the value in numeric form only.

Worked examples, 3 compounds total:
compound	Hill Slope
Cc1ccc(CCC(=O)NNC(=O)CCc2ccccc2)c(Br)c1 [SR-01000313193]	1.19
CC(CCc1ccccc1)NC(=O)Cn1ncc2c1-c1ccccc1OC2 (stereo not drawn) [SR-01000134913]	0.51
Cc1[nH]ncc1-c1ccc(NC(=O)C2COc3ccc(F)cc3C2)c(OCCN2CCOCC2)c1.O=C(O)C(F)(F)F.O=C(O)C(F)(F)F (stereo not drawn) [SR-00000005393]	0.94

stdin: Enter reported Hill Slope observed with GPR139 (Homo sapiens) for Cc1cccc(C(=O)NNC(=O)CCc2ccccc2)c1 [SR-01000513008]
stdout: 0.93

stdin: Enter reported Hill Slope observed with GPR139 (Homo sapiens) for COc1cc(C(=O)NNC(=O)C(C)Oc2ccc(Cl)cc2Cl)cc(OC)c1OC (stereo not drawn) [SR-01000644888]
stdout: 0.74

stdin: Enter reported Hill Slope observed with GPR139 (Homo sapiens) for COc1ccc(CC(=O)NNC(=O)C(C)Oc2ccc(Cl)cc2Cl)cc1OC (stereo not drawn) [SR-01000312779]
stdout: 1.91

stdin: Enter reported Hill Slope observed with GPR139 (Homo sapiens) for Cc1ccc(NC(=O)NCCCc2ccccc2)cc1 [SR-01000299370]
stdout: 0.74

stdin: Enter reported Hill Slope observed with GPR139 (Homo sapiens) for NC1=NC(=O)/C(=C\c2ccc(Cl)cc2Cl)S1 [SR-01000310833]
stdout: 0.71

stdin: Enter reported Hill Slope observed with GPR139 (Homo sapiens) for COc1ccc(SCC(=O)NNC(=S)Nc2ccccc2)cc1 [SR-01000526835]
stdout: 1.15

* * *

- tested-on: GPR139 (Homo sapiens)
- test: GPR139 Agonist titration / agonist counterscreen assay (calcium detection, HEK-GPR139 cells)
- Type: cell-based
- Parameters: expressed in transfected cells; host or cells: HEK Aequorin cells, Maxcyte transient transfection
- particulars: GPR139 Agonist Activity
quantity: Lipophilic Efficiency (logP)
Please reply with the value in numeric form only.

molecule	Lipophilic Efficiency (logP)
COc1ccc(SCC(=O)NNC(=S)Nc2ccccc2)cc1	3.01
Cc1ccc2c(c1)-c1c(cnn1CC(=O)Nc1ncccc1C)CO2	3.26
COc1cc(C(=O)NNC(=O)CCc2c[nH]c3ccccc23)ccc1OC(C)C	3.27
CSc1ccc(CCNC(=O)Cn2ncc3c(=O)oc4ccccc4c32)cc1	3.64
COc1ccc2c(c1)C[C@H](C(=O)Nc1ccc(-c3cn[nH]c3)cc1OCC1CNC1)NC2.O=C(O)C(F)(F)F.O=C(O)C(F)(F)F.O=C(O)C(F)(F)F	4.82

stdin: Enter reported Lipophilic Efficiency (logP) observed with GPR139 (Homo sapiens) for `Cc1ccc(CNC(=O)Cn2nc(-c3ccc(C)cc3)ccc2=O)cc1`
stdout: 2.66

stdin: Enter reported Lipophilic Efficiency (logP) observed with GPR139 (Homo sapiens) for `O=C(O)COc1cc(Br)c(Br)c(Br)c1O`
stdout: 2.53

* * *

- Test system: parental HEK cells
- test: HEK parental Agonist Counterscreen Assay (non-transfected cells)
- Assay type: cell-based
- particulars: HEK Agonist Activity section
Collected Lipophilic Efficiency (logP) values appear next to each entry.
Please reply with the value in numeric form only.

Worked examples, 3 compounds total:
compound	recorded-measurement
Cc1cccnc1CNC(=O)CCC1(Cc2cccc3ccccc23)CCC(=O)N1 (stereo not drawn)	1.92
Cc1ccc(SCC(=O)Nc2nnc(-c3ccc(Cl)cc3)o2)cc1	0.84
O=C(NCCn1ccc2ccccc21)c1cccc(Br)c1	0.91

stdin: Report Lipophilic Efficiency (logP) for `CCCCC(=O)OCC(=O)NCc1ccc(C)cc1` please.
stdout: 2.18

stdin: Report Lipophilic Efficiency (logP) for CC(C(=O)NCCC1=CCCCC1)n1c(=O)c2cccn2c2ccccc21 (stereo not drawn) please.
stdout: 2.10

stdin: Report Lipophilic Efficiency (logP) for `O=C(NCCc1ccc(Cl)cc1)c1nnc(Cc2ccc(F)cc2)o1` please.
stdout: 1.73

stdin: Report Lipophilic Efficiency (logP) for `CC(C)c1ccc(NC(=O)Cn2ncc3c2-c2ccccc2OC3)cc1` please.
stdout: 1.13

stdin: Report Lipophilic Efficiency (logP) for `O=C(CN1CCN(Cc2ccccc2F)C1=O)NCCc1ccc(Cl)cc1` please.
stdout: 2.11

stdin: Report Lipophilic Efficiency (logP) for `COc1ccccc1NC(=O)C(=O)NNC(=O)COc1ccc(Br)cc1C` please.
stdout: 2.44

stdin: Report Lipophilic Efficiency (logP) for CCC(=O)NNC(=O)C(C)Oc1ccc(Cl)cc1Cl (stereo not drawn) please.
stdout: 2.48

stdin: Report Lipophilic Efficiency (logP) for CN(Cc1ccc[nH]1)C(=O)CN1C(=O)NC2(CCc3ccccc3C2)C1=O (stereo not drawn) please.
stdout: 2.52

stdin: Report Lipophilic Efficiency (logP) for CC1(c2ccc3c(c2)OCCO3)NC(=O)C(CC(=O)NCC2CCCCC2)C1=O (stereo not drawn) please.
stdout: 3.15

stdin: Report Lipophilic Efficiency (logP) for Cc1ccccc1NC(=O)CSC1=C(C#N)C(c2ccccc2C(F)(F)F)C2=C(CCCC2=O)N1 (stereo not drawn) please.
stdout: −0.16

stdin: Report Lipophilic Efficiency (logP) for CCCCN(C)C(=O)CCC(=O)NNC1Cc2ccccc2C2=CC(C)=CC21 (stereo not drawn) please.
stdout: 2.37

stdin: Report Lipophilic Efficiency (logP) for `COc1ccc(CCCC(=O)c2cccc(-c3ccc(OC)cc3)c2)cc1` please.
stdout: 1.68

stdin: Report Lipophilic Efficiency (logP) for `COc1cccc(CNC(=O)Nc2ccc(-c3cn[nH]c3)cc2)c1` please.
stdout: 2.23

stdin: Report Lipophilic Efficiency (logP) for `COc1cc(NC(=O)NCCc2ccc3c(c2)CCCN3C)cc(OC)c1` please.
stdout: 1.46

stdin: Report Lipophilic Efficiency (logP) for CC(=O)N1CCSc2cc(S(=O)(=O)NC3CCC(C)CC3)ccc21 (stereo not drawn) please.
stdout: 2.66
